target: protein-protein interaction between Kras and SOS1 (biotin-tagged human Kras loaded with GDP, His-tagged human SOS1) (Homo sapiens (Human), UniProt P01116, G12D); assay: Protein-protein interaction inhibition between Kras and SOS1 (KrasG12D-SOS PPI) using AlphaScreen; type: biochemical; conditions: AlphaScreen; biotin-tagged human Kras loaded with GDP, His-tagged human SOS1; read-out: KRAS G12D-SOS PPI IC50
Numbered stars: 1 amine (or outer) side, 2 acyl side, 3 side chain; on linkers, the order of the positions; unused ones are H or OH. Bridge positions count the residues as written; N and C are the ends. Square brackets hold non-standard residues; d marks the D form. Peptide text beside a SMILES is read from it. * marks the point of attachment. hPhe(3-Cl-4-CF3) = N[C@@H](CCc1ccc(C(F)(F)F)c(Cl)c1)C(=O)O; X112 = O=C([C@H](CCOc1ccc(C(F)(F)F)cc1)N[*:1])[*:2]; Gly(Nα-CH2(4-Pyr)) = O=C(O)CNCc1ccncc1; NMeCha = CN[C@@H](CC1CCCCC1)C(=O)O; NMeChg = CN[C@H](C(=O)O)C1CCCCC1; NMeD = CN[C@@H](CC(=O)O)C(=O)O; NMeL = CN[C@@H](CC(C)C)C(=O)O; NMeA = CN[C@@H](C)C(=O)O; Piperidide = C1CCN(*)CC1; Ac5c = NC1(C(=O)O)CCCC1; Sar = CNCC(=O)O
Documented pIC50 across a set of molecules
Friendly reminder that pIC50 comes from taking -log10 of the concentration in mol/L.

CC[C@H](C)[C@@H]1NC(=O)[C@H](CC(C)C)N(C)C(=O)C[C@@H](C(=O)N2CCCCC2)N(C)C(=O)[C@H](C2CCCCC2)N(C)C(=O)C2(CCCC2)NC(=O)CN(Cc2ccncc2)C(=O)[C@H](CCc2ccc(C(F)(F)F)c(Cl)c2)NC(=O)CN(C)C(=O)[C@H](CC2CCCCC2)N(C)C(=O)CN(C)C(=O)CN(C)C1=O [Compound 2033] ([NMeL]I[Sar][Sar][NMeCha][Sar][hPhe(3-Cl-4-CF3)][Gly(Nα-CH2(4-Pyr))][Ac5c][NMeChg][NMeD]-Piperidide; lactam N-11 (inferred); C-terminus assumed) = 9.19

As a next step, examine the molecule that follows.
# input What value of pIC50 has been recorded for this entry: CC[C@H](C)[C@@H]1NC(=O)[C@H](C)N(C)C(=O)C[C@@H](C(=O)N2CCCCC2)N(C)C(=O)[C@H](C2CCCCC2)N(C)C(=O)C2(CCCC2)NC(=O)[C@@H]2CCCN2C(=O)[C@H](CCOc2ccc(C(F)(F)F)cc2)NC(=O)CN(C)C(=O)[C@H](CC2CCCCC2)N(C)C(=O)CN(C)C(=O)CN(C)C1=O [Compound 2041] ([NMeA]I[Sar][Sar][NMeCha][Sar][X112]P[Ac5c][NMeChg][NMeD]-Piperidide; lactam N-11)
# output 6.96

* * *

target: protein-protein interaction between Kras and SOS1 (biotin-tagged human Kras loaded with GDP, His-tagged human SOS1) (Homo sapiens (Human), UniProt P01116, G12D); test: Protein-protein interaction inhibition between Kras and SOS1 (KrasG12D-SOS PPI) using AlphaScreen; assay type: biochemical; conditions: AlphaScreen; biotin-tagged human Kras loaded with GDP, His-tagged human SOS1; read-out: KRAS G12D-SOS PPI IC50;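 note: kras produced in E. coli, Ni-coupled donor beads and streptavidin acceptor beads, excitation 680 nm with emission detected at 520–620 nm via singlet oxygen transfer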
Numbered stars: 1 amine (or outer) side, 2 acyl side, 3 side chain; on linkers, the order of the positions; unused ones are H or OH. Bridge positions count the residues as written; N and C are the ends. Square brackets hold non-standard residues; d marks the D form. Peptide text beside a SMILES is read from it. * marks the point of attachment. hPhe(3-Cl-4-CF3) = N[C@@H](CCc1ccc(C(F)(F)F)c(Cl)c1)C(=O)O; hPhe(3-F,4-CF3) = N[C@@H](CCc1ccc(C(F)(F)F)c(F)c1)C(=O)O; hPhe(4-CF3) = N[C@@H](CCc1ccc(C(F)(F)F)cc1)C(=O)O; NMePhe(4-Cl) = CN[C@@H](Cc1ccc(Cl)cc1)C(=O)O; NMePhe(4-Me) = CN[C@@H](Cc1ccc(C)cc1)C(=O)O; NMedβ3hAla = C[C@H](CC(=O)[*:2])N(C)[*:1]; dβ3hPip = O=C(C[C@H]1CCCCN1[*:1])[*:2]; NMeAla(cPr) = CN[C@@H](CC1CC1)C(=O)O; NMeCha = CN[C@@H](CC1CCCCC1)C(=O)O; cisHyp = O=C(O)[C@@H]1C[C@H](O)CN1; NMeChg = CN[C@H](C(=O)O)C1CCCCC1; NMeF = CN[C@@H](Cc1ccccc1)C(=O)O; NMeI = CC[C@H](C)[C@H](NC)C(=O)O; NMeD = CN[C@@H](CC(=O)O)C(=O)O; NMeL = CN[C@@H](CC(C)C)C(=O)O; NMeNle = CCCC[C@H](NC)C(=O)O; NMeV = CN[C@H](C(=O)O)C(C)C; d(β3hA) = C[C@@H](N)CC(=O)O; NMeA = CN[C@@H](C)C(=O)O; NMeAib = CNC(C)(C)C(=O)O; Piperidide = C1CCN(*)CC1; Pyrrolidide = C1CCN(*)C1; dNMeA = CN[C@H](C)C(=O)O; Ac5c = NC1(C(=O)O)CCCC1; Aze = O=C(O)[C@@H]1CCN1; Ethyl(2-OH) = OCC*; Sar = CNCC(=O)O
RECORDED METRIC: pIC50
Friendly reminder that pIC50 comes from taking -log10 of the concentration in mol/L.

CCCC[C@H]1C(=O)N[C@@H]([C@@H](C)CC)C(=O)N(C)[C@@H](C)C(=O)N2CC[C@H]2C(=O)N(C)[C@@H](CC2CCCCC2)C(=O)N(C)CC(=O)N[C@@H](CCc2ccc(C(F)(F)F)c(Cl)c2)C(=O)N2CCC[C@H]2C(=O)NC2(CCCC2)C(=O)N(C)[C@@H](C(C)C)C(=O)N(C)[C@H](C(=O)N2CCCCC2)CC(=O)N1C [Compound 1616] ([NMeNle]I[NMeA][Aze][NMeCha][Sar][hPhe(3-Cl-4-CF3)]P[Ac5c][NMeV][NMeD]-Piperidide; lactam N-11) = 7.92
CC[C@H](C)[C@@H]1NC(=O)[C@H](CC(C)C)N(C)C(=O)C[C@@H](C(=O)N2CCCCC2)N(C)C(=O)[C@H](C(C)C)N(C)C(=O)C2(CCCC2)NC(=O)[C@@H]2CCCN2C(=O)[C@H](CCc2ccc(C(F)(F)F)c(Cl)c2)NC(=O)CN(C)C(=O)[C@H](CC2CC2)N(C)C(=O)[C@@H]2CCN2C(=O)[C@H](C)N(C)C1=O [Compound 195] ([NMeL]I[NMeA][Aze][NMeAla(cPr)][Sar][hPhe(3-Cl-4-CF3)]P[Ac5c][NMeV][NMeD]-Piperidide; lactam N-11) = 8.02
CC[C@H](C)[C@@H]1NC(=O)[C@H](C)N(C)C(=O)C[C@@H](C)N(C)C(=O)[C@H](CC(C)C)NC(=O)C(C)(C)N(C)C(=O)[C@H](CC(C)C)NC(=O)[C@H](CCc2ccc(C(F)(F)F)c(Cl)c2)NC(=O)[C@@H](C)N(C)C(=O)[C@H](CC2CCCCC2)N(C)C(=O)CN(C)C(=O)CN(C)C1=O [Compound 1390] (cyclo(I[Sar][Sar][NMeCha][dNMeA][hPhe(3-Cl-4-CF3)]L[NMeAib]L[NMedβ3hAla][NMeA])) = 6.55
CC[C@H](C)[C@@H]1NC(=O)[C@H](CC(C)C)N(C)C(=O)C[C@@H](C(=O)N2CCCC2)N(C)C(=O)[C@H]([C@@H](C)CC)N(C)C(=O)C2(CCCC2)NC(=O)[C@@H]2CCCN2C(=O)[C@H](CCc2ccc(C(F)(F)F)c(Cl)c2)NC(=O)CN(C)C(=O)[C@H](Cc2ccc(C)cc2)N(C)C(=O)[C@@H]2CCN2C(=O)[C@H](C)N(C)C1=O [Compound 1645] ([NMeL]I[NMeA][Aze][NMePhe(4-Me)][Sar][hPhe(3-Cl-4-CF3)]P[Ac5c][NMeI][NMeD]-Pyrrolidide; lactam N-11) = 9.00
CC[C@H](C)[C@@H]1NC(=O)[C@H](CC(C)C)N(C)C(=O)C[C@@H](C(=O)N2CCCCC2)N(C)C(=O)[C@H](C2CCCCC2)N(C)C(=O)C2(CCCC2)NC(=O)[C@@H]2C[C@H](OCCO)CN2C(=O)[C@H](CCc2ccc(C(F)(F)F)c(Cl)c2)NC(=O)CN(C)C(=O)[C@H](CC2CCCCC2)N(C)C(=O)CN(C)C(=O)CN(C)C1=O [Compound 2117] ([NMeL]I[Sar][Sar][NMeCha][Sar][hPhe(3-Cl-4-CF3)][cisHyp](Ethyl(2-OH))[Ac5c][NMeChg][NMeD]-Piperidide; lactam N-11) = 9.39

# input What value of pIC50 has been recorded for this entry: CC[C@H](C)[C@@H]1NC(=O)[C@H](C)N(C)C(=O)C[C@@H](C)N(C)C(=O)[C@H](CC(C)C)NC(=O)C(C)(C)N(C)C(=O)[C@H](CC(C)C)NC(=O)[C@H](CCc2ccc(C(F)(F)F)c(F)c2)NC(=O)CN(C)C(=O)[C@H](CC2CCCCC2)N(C)C(=O)CN(C)C(=O)CN(C)C1=O [Compound 842] (cyclo(I[Sar][Sar][NMeCha][Sar][hPhe(3-F,4-CF3)]L[NMeAib]L[NMedβ3hAla][NMeA]))
# output 7.37

# input What value of pIC50 has been recorded for this entry: CC[C@H](C)[C@@H]1NC(=O)[C@H](C)N(C)C(=O)C[C@@H](C(=O)N2CCCCC2)N(C)C(=O)[C@H](C(C)C)N(C)C(=O)C(C)(C)N(C)C(=O)[C@@H]2CCCN2C(=O)[C@H](CCc2ccc(C(F)(F)F)c(Cl)c2)NC(=O)CN(C)C(=O)[C@H](CC2CCCCC2)N(C)C(=O)[C@@H]2CCN2C(=O)[C@H](C)N(C)C1=O [Compound 1034] ([NMeA]I[NMeA][Aze][NMeCha][Sar][hPhe(3-Cl-4-CF3)]P[NMeAib][NMeV][NMeD]-Piperidide; lactam N-11)
# output 8.77

# input What value of pIC50 has been recorded for this entry: CC[C@H](C)[C@@H]1NC(=O)[C@H](C)N(C)C(=O)C[C@H]2CCCCN2C(=O)[C@H](C(C)C)N(C)C(=O)[C@H](Cc2ccccc2)N(C)C(=O)[C@H](CC(C)C)N(C)C(=O)[C@H](CCc2ccc(C(F)(F)F)cc2)NC(=O)CN(C)C(=O)[C@H](Cc2ccc(Cl)cc2)N(C)C(=O)CN(C)C(=O)CN(C)C1=O [Compound 512] (cyclo(I[Sar][Sar][NMePhe(4-Cl)][Sar][hPhe(4-CF3)][NMeL][NMeF][NMeV][dβ3hPip][NMeA]))
# output 6.82

# input What value of pIC50 has been recorded for this entry: CC[C@H](C)[C@@H]1NC(=O)[C@H](CC2CCCCC2)N(C)C(=O)C[C@@H](C)NC(=O)[C@H](CC(C)C)N(C)C(=O)C2(CCCC2)NC(=O)[C@H](CC(C)C)N(C)C(=O)[C@H](CCc2ccc(C(F)(F)F)cc2)NC(=O)CN(C)C(=O)[C@H](Cc2ccc(Cl)cc2)N(C)C(=O)CN(C)C(=O)CN(C)C1=O [Compound 583] (cyclo([Ac5c][NMeL][d(β3hA)][NMeCha]I[Sar][Sar][NMePhe(4-Cl)][Sar][hPhe(4-CF3)][NMeL]))
# output 6.43
